Ref: paper PMC10544018

Experiment: Log D7.4 measurement by chromatographic method
Type: physicochemical
Details: experimental distribution coefficient at pH 7.4; read-out: e log D7.4
ASSAY_READOUT: chromatographic logD

{"columns": ["COMPOUND", "chromatographic logD"],
 "data": [
  ["Cc1ncsc1-c1ccc([C@H](C)NC(=O)[C@@H]2C[C@@H](O)CN2C(=O)[C@@H](NC(=O)C2(F)CC2)C(C)(C)C)cc1F [Compound 31]", 2.3],
  ["Cc1ncsc1-c1ccc(CNC(=O)[C@@H]2C[C@@H](O)CN2C(=O)[C@@H](NC(=O)C2(C#N)CC2)C(C)(C)C)c2ccccc12 [Compound 22]", 2.3],
  ["Cc1cc(CNC(=O)[C@@H]2C[C@@H](O)CN2C(=O)[C@@H](NC(=O)C2(C#N)CC2)C(C)(C)C)ccc1-c1scnc1C [Compound 6]", 2],
  ["COc1cc(-c2scnc2C)ccc1CNC(=O)[C@@H]1C[C@@H](O)CN1C(=O)[C@@H](NC(=O)C1(C#N)CC1)C(C)(C)C [Compound 3]", 1.9],
  ["Cc1cc(-c2scnc2C)c(F)cc1[C@H](C)NC(=O)[C@@H]1C[C@@H](O)CN1C(=O)[C@@H](NC(=O)C1(F)CC1)C(C)(C)C [Compound 32]", 2.5]
]}

Assign chromatographic logD to the following record: Cc1ncsc1-c1ccc2c(c1)CC[C@@H]2NC(=O)[C@@H]1C[C@@H](O)CN1C(=O)[C@@H](NC(=O)C1(C#N)CC1)C(C)(C)C [Compound 34] 2.2

====

Target: VCB protein (Homo sapiens)
Construct: A plasmid containing pVHL54–213 with an N-terminal His6 tag; His6 (N, cleaved yes); made in house; host or cells: Escherichia coli BL21 (DE3)
Assay: Competitive fluorescence polarization (FP) binding assay, displacement of FAM-labeled HIF-1α peptide
Conditions: mean IC50 values obtained from the FP assay; read-out: IC50 ± S.E.M, FP assay
pIC50: −log10 of the molar value.
Mark satisfied for reported pIC50 of 6 or greater; mark not satisfied for anything smaller.

{"columns": ["MOLECULE", "QUALITATIVE_LABEL"],
 "data": [
  ["Cc1ncsc1-c1cc(Cl)c(CNC(=O)[C@@H]2C[C@@H](O)CN2C(=O)[C@@H](NC(=O)C2(C#N)CC2)C(C)(C)C)cc1Cl", "not satisfied"],
  ["Cc1ncsc1-c1cc2c(cc1F)[C@@H](NC(=O)[C@@H]1C[C@@H](O)CN1C(=O)[C@@H](NC(=O)C1(F)CC1)C(C)(C)C)CC2", "not satisfied"],
  ["Cc1cc(-c2scnc2C)c(C)cc1CNC(=O)[C@@H]1C[C@@H](O)CN1C(=O)[C@@H](NC(=O)C1(C#N)CC1)C(C)(C)C", "not satisfied"],
  ["Cc1ncsc1-c1ccc(CNC(=O)[C@@H]2C[C@@H](O)CN2C(=O)[C@@H](NC(=O)C2(C#N)CC2)C(C)(C)C)c(F)c1F", "not satisfied"],
  ["Cc1cc(-c2scnc2C)c(F)cc1CNC(=O)[C@@H]1C[C@@H](O)CN1C(=O)[C@@H](NC(=O)C1(F)CC1)C(C)(C)C", "satisfied"],
  ["Cc1cc(CNC(=O)[C@@H]2C[C@@H](O)CN2C(=O)[C@@H](NC(=O)C2(C#N)CC2)C(C)(C)C)ccc1-c1scnc1C", "not satisfied"]
]}

Assess whether reported pIC50 for COc1cc(-c2scnc2C)c(F)cc1CNC(=O)[C@@H]1C[C@@H](O)CN1C(=O)[C@@H](NC(=O)C1(F)CC1)C(C)(C)C sits at 6 or higher. satisfied

Determine whether measured pIC50 meets or exceeds 6 for Cc1cc(-c2scnc2C)ccc1[C@H](C)NC(=O)[C@@H]1C[C@@H](O)CN1C(=O)[C@@H](NC(=O)C1(F)CC1)C(C)(C)C satisfied
